Test system: Aβ40 in conditioned medium of cells expressing amyloid precursor protein
Protocol: In vitro BACE cell-based assay (HEK cell assay, Aβ40 sandwich ELISA)
Condition Parameters: Homo sapiens, HEK293; average IC50; Aβ40 after 24 h incubation
API: label(entry) gives Condition met if the entry's IC50 is strictly smaller than 10 nM; on equality or larger values it gives Condition not met.

{"Molecule": "NC1=NC2(c3cc(-c4cccnc4F)ccc3Oc3c2cc(N2CCC(F)(F)C2)nc3F)c2ccccc21 (racemic) [Example 9]", "Target Desc": "Aβ40 in conditioned medium of cells expressing amyloid precursor protein", "Cat": "Condition not met"}
{"Molecule": "NC1=NC2(c3cc(-c4cccnc4F)ccc3Oc3c2cc(C2=CCCOC2)nc3F)c2ccccc21 (racemic) [Example 7]", "Target Desc": "Aβ40 in conditioned medium of cells expressing amyloid precursor protein", "Cat": "Condition not met"}
{"Molecule": "NC1=NC2(c3cc(-c4cccnc4F)ccc3Oc3cnc(Cl)cc32)c2ncccc2O1 (racemic) [Example 21]", "Target Desc": "Aβ40 in conditioned medium of cells expressing amyloid precursor protein", "Cat": "Condition not met"}
{"Molecule": "NC1=N[C@]2(c3cc(Br)ccc3Oc3c2cc(Cl)nc3F)c2cccnc21 (single isomer, unassigned) [Example 17c-2]", "Target Desc": "Aβ40 in conditioned medium of cells expressing amyloid precursor protein", "Cat": "Condition not met"}
{"Molecule": "CC(C)(C)C#Cc1cc2c(cn1)Oc1ccc(-c3cccnc3F)cc1C21N=C(N)c2ccccc21 (racemic) [Example 13]", "Target Desc": "Aβ40 in conditioned medium of cells expressing amyloid precursor protein", "Cat": "Condition not met"}
{"Molecule": "NC1=N[C@@]2(c3cc(-c4cccnc4F)ccc3Oc3c2cc(-c2ccnc(F)c2)nc3F)c2cnccc21 (single isomer, unassigned) [Example 14-B]", "Target Desc": "Aβ40 in conditioned medium of cells expressing amyloid precursor protein", "Cat": "Condition not met"}
{"Molecule": "NC1=N[C@@]2(c3cc(Br)ccc3Oc3c2cc(Cl)nc3F)c2cccnc21 (single isomer, unassigned) [Example 17c-1]", "Target Desc": "Aβ40 in conditioned medium of cells expressing amyloid precursor protein", "Cat": "Condition not met"}
{"Molecule": "NC1=NC2(c3cc(Br)ccc3Oc3cnc(Cl)cc32)c2ccncc21 (centres unmarked) [Example 16]", "Target Desc": "Aβ40 in conditioned medium of cells expressing amyloid precursor protein", "Cat": "Condition not met"}
{"Molecule": "NC1=N[C@]2(c3cc(-c4cccnc4F)ccc3Oc3c2cc(N2CCOCC2)nc3F)c2cccnc21 [Example 17-G]", "Target Desc": "Aβ40 in conditioned medium of cells expressing amyloid precursor protein", "Cat": "Condition met"}
{"Molecule": "NC1=NC2(c3cc(-c4cccnc4F)ccc3Oc3c2cc(-c2ccnc(F)c2)nc3F)c2ccccc21 (racemic) [Example 5e]", "Target Desc": "Aβ40 in conditioned medium of cells expressing amyloid precursor protein", "Cat": "Condition met"}
{"Molecule": "NC1=N[C@]2(c3cc(-c4cccnc4F)ccc3Oc3c2cc(-c2ccnc(F)c2)nc3F)c2ccccc21 (single isomer, unassigned) [Example 5-B]", "Target Desc": "Aβ40 in conditioned medium of cells expressing amyloid precursor protein", "Cat": "Condition not met"}
{"Molecule": "NC1=N[C@]2(c3cc(-c4cccnc4F)ccc3Oc3c2cc(C2=CCCOC2)nc3F)c2cccnc21 [Example 17-F]", "Target Desc": "Aβ40 in conditioned medium of cells expressing amyloid precursor protein", "Cat": "Condition met"}
{"Molecule": "NC1=NC2(c3cc(-c4cccnc4F)ccc3Oc3c2cc(-c2ccnc(F)c2)nc3F)c2ncccc21 (racemic) [Example 15]", "Target Desc": "Aβ40 in conditioned medium of cells expressing amyloid precursor protein", "Cat": "Condition not met"}
{"Molecule": "NC1=N[C@@]2(c3cc(-c4cccnc4F)ccc3Oc3c2cc(C2=CCCOC2)nc3F)c2ccccc21 (single isomer, unassigned) [Example 7-A]", "Target Desc": "Aβ40 in conditioned medium of cells expressing amyloid precursor protein", "Cat": "Condition not met"}
